What viability was measured for each of the following?
# TEST_NAME: reversal of MRP1-mediated doxorubicin resistance, pilot screen, H69AR cells, doxorubicin co-treatment (AID 601)
# STATED_CONDITIONS: H69AR cells + 2 uM doxorubicin, CellTiter-Glo, 72 h; measured here: viability with 2 uM doxorubicin; at 10 µM; stronger effect = lower value
Numbers only, in %.

Answered cases to consult:
SMILES	viability [%]
Cn1c(C(=O)NCCC2=CCCCC2)cc2c(=O)n3ccccc3nc21	80.4
Cc1ccc(C(=O)/C=C/Nc2cccc(O)c2)cc1	82.1

// below: viability requested for another compound
Q: I'd like to know its viability. The compound in question is CCOC(=O)c1nn(-c2sc(C(=O)OC)c(C)c2C(=O)OC)cc1O
Ans: 81.7
